The origin of these recorded values is PubChem BioAssay (NCI).

# Tested on: SK-MEL-28 melanoma
# TEST: NCI tumour cell line growth inhibition, 48 h
ENDPOINT: TGI

Reference set, count: 5
- COMPOUND: "COc1ccc(C2CC(c3cccc(Nc4ccnc5cc(Cl)ccc45)c3)=NN2C=O)cc1 (stereo not given)"
  TGI: "25.6 µM"
- COMPOUND: "C=C1CC[C@@H]2[C@](C)(COC(C)=O)[C@H](OC(C)=O)CC[C@@]2(C)[C@@H]1CC(Nc1ccc(S(=O)(=O)NC(C)=O)cc1)C1=CCOC1=O (stereo not given in full)"
  TGI: "13.2 µM"
- COMPOUND: "COc1nc2[nH]ccc2c(=O)[nH]1"
  TGI: "> 100 µM"
- COMPOUND: "N#CC(C(=O)c1cccnc1Cl)c1nc2cc(C(F)(F)F)ccc2s1 (stereo not given)"
  TGI: "> 100 µM"
- COMPOUND: "Cc1nc(-n2nc(-c3ccccc3)cc2-c2ccccc2)sc1C(=O)/C=C/c1ccc(/C=C/C(=O)c2sc(-n3nc(-c4ccccc4)cc3-c3ccccc3)nc2C)cc1"
  TGI: "41.8 µM"

Let us examine a further case.
Query block: # TGI lookup, item `CCN(CCCN(C)C)Cc1cc(I)cc(C)c1O`
Result block: 36.3 µM

---

# Test system: MOLT-4 leukemia
# TEST: NCI tumour cell line growth inhibition, 48 h
ENDPOINT: TGI

Reference set, count: 5
- COMPOUND: "Cn1cnc([N+](=O)[O-])c1Sc1nc(N)nc2c1ncn2C1OC(CO)C(O)C1O (stereo unspecified)"
  TGI: "> 100 µM"
- COMPOUND: "C[N+]1(CCC(=O)c2ccco2)CC2CCC(CC2)C1 (stereo unspecified)"
  TGI: "> 100 µM"
- COMPOUND: "COC(=O)/C(C#N)=C(\\Nc1ccccc1)N1CCOCC1"
  TGI: "> 100 µM"
- COMPOUND: "S=c1[nH]nc(CNc2ccc(-c3n[nH]c(=S)n3-c3ccc(Cl)cc3)cc2)n1-c1ccc(Cl)cc1"
  TGI: "> 100 µM"
- COMPOUND: "O=c1c2cc(I)ccc2nc(SCc2nncs2)n1Cc1ccccc1"
  TGI: "> 100 µM"

Query block: # TGI lookup, item NC(Cc1ccc(OCc2ccccc2)cn1)C(=O)O (stereo unspecified)
Result block: > 100 µM

Query block: # TGI lookup, item `Cc1ccc(S(=O)(=O)NC(=O)NCCc2cnc[nH]2)cc1`
Result block: > 100 µM

Query block: # TGI lookup, item `CCN(CC)c1cccc2c1/C(=N/O)CCCC2`
Result block: > 100 µM

Query block: # TGI lookup, item `Cc1ccccc1N=Nc1c(O)c(S(=O)(=O)O)cc2cc(S(=O)(=O)O)ccc12`
Result block: > 100 µM

---

# Tested on: KM12 colon
# TEST: NCI tumour cell line growth inhibition, 48 h; in the data active = GI50 below about 0.43 µM; inactive = the rest
Thanks in advance; please answer with one of these: label 1 (active), label 0 (inactive)

Some entries whose results are on file:
- COMPOUND: "COc1cc(/C=C\\c2cc(OC)c(OC)c(OC)c2)cc(N/C=C\\C(=O)c2ccc(OC(F)(F)F)cc2)c1OC"
  CLASSIFICATION: "label 0"
- COMPOUND: "C/C(=N\\NC(=S)N1CCCCC1)c1ccccn1"
  CLASSIFICATION: "label 1"
- COMPOUND: "COc1ccc(C2=N[C@@H](Cc3ccccc3)C(=O)Nc3ccsc32)cc1"
  CLASSIFICATION: "label 0"
- COMPOUND: "CCOC(=O)/C(=C/N1CCN(C(=O)c2ccco2)C1=S)C(=O)c1ccccc1"
  CLASSIFICATION: "label 0"
- COMPOUND: "COC[C@@H](N=C1NC(=O)/C(=C/c2ccc3ncccc3c2)S1)c1ccccc1"
  CLASSIFICATION: "label 0"
- COMPOUND: "COc1ccc(C2CC(c3cccc(Nc4ccnc5cc(Cl)ccc45)c3)=NN2C=O)cc1 (stereo not drawn)"
  CLASSIFICATION: "label 1"

Query block: Could you check what this test reported for `NS(=O)(=O)c1ccc(Nc2cc(-c3cccc(O)c3)[nH]n2)cc1` ?
Result block: label 0

Query block: Could you check what this test reported for `O=C(CC(Cl)=C(Cl)Cl)Nc1ccccc1` ?
Result block: label 0
